Target Desc: N-terminal HiBiT tagged BCL6 (Homo sapiens, UniProt P41182)
Construct: expressed in transfected cells; host or cells: HT1080 (ATCC CCL-121), stably transduced with lentivirus pLV-UBC-N-HiBiT-BCL6-PGK-puro
Test Protocol: HiBiT based degradation assay
Format: cell-based
Reported Conditions: HT1080 cells expressing N-terminal HiBiT tagged BCL6; 5 hours of incubation; four-parameter logistic model; read-out: EC50 (5 hr)
Test Readout: DC50

compound="CNC(=O)COc1cc2cc(Nc3nc(N4C[C@H](C)N(CC5CCN(c6cccc7c(C8CCC(=O)NC8=O)nn(C)c67)CC5)C[C@H]4C)ncc3Cl)cnc2n(C(C)C)c1=O (stereo partly shown) [Compound 179a]" target_desc="N-terminal HiBiT tagged BCL6 (Homo sapiens, UniProt P41182)" value_reported="100 to 1000 nM"
compound="CNC(=O)COc1cc2cc(Nc3nc(N4CCC(CN5C[C@H]6C[C@@H]5CN6c5cccc6c(C7CCC(=O)NC7=O)nn(C)c56)CC4)ncc3Cl)cnc2n(C(C)C)c1=O (stereo partly shown) [Compound 175a]" target_desc="N-terminal HiBiT tagged BCL6 (Homo sapiens, UniProt P41182)" value_reported="< 10 nM"
compound="CNC(=O)COc1cc2cc(Nc3nc(N4CCN(CC5CCN(c6cccc7c(C8CCC(=O)NC8=O)nn(C)c67)CC5)CC4)ncc3Cl)cnc2n(CC2CC2)c1=O (stereo not shown) [Compound 157]" target_desc="N-terminal HiBiT tagged BCL6 (Homo sapiens, UniProt P41182)" value_reported="10 to 100 nM"
compound="CNC(=O)COc1cc2cc(Nc3nc(N4CCC([C@@](C)(O)C5CCN(c6ccc7c(C8CCC(=O)NC8=O)nn(C)c7c6)CC5)CC4)ncc3Cl)cnc2n(C(C)C)c1=O (single isomer, unassigned) [Compound 201a]" target_desc="N-terminal HiBiT tagged BCL6 (Homo sapiens, UniProt P41182)" value_reported="< 10 nM"
compound="CNC(=O)COc1cc2cc(Nc3nc(N4CCN([C@H](C)C5CCN(c6cccc7c(C8CCC(=O)NC8=O)nn(C)c67)CC5)CC4)ncc3Cl)cnc2n(C(C)C)c1=O (single isomer, unassigned) [Compound 195b]" target_desc="N-terminal HiBiT tagged BCL6 (Homo sapiens, UniProt P41182)" value_reported="10 to 100 nM"
compound="CNC(=O)COc1cc2cc(Nc3nc(N4CCN(CC5CCN(c6cccc7c(C8CCC(=O)NC8=O)nn(C)c67)CC5)C[C@H]4CO)ncc3Cl)cnc2n(C(C)C)c1=O (stereo partly shown) [Compound 155a]" target_desc="N-terminal HiBiT tagged BCL6 (Homo sapiens, UniProt P41182)" value_reported="10 to 100 nM"
compound="CNC(=O)COc1cc2cc(Nc3nc(N4CCC(OC5CCN(c6cccc7c(C8CCC(=O)NC8=O)nn(C)c67)CC5)CC4)ncc3Cl)cnc2n(C(C)C)c1=O (stereo not shown) [Compound 225]" target_desc="N-terminal HiBiT tagged BCL6 (Homo sapiens, UniProt P41182)" value_reported="10 to 100 nM"
compound="CNC(=O)COc1cc2cc(Nc3nc(N4CCC(CN5CCN(c6cccc7c(C8CCC(=O)NC8=O)nn(C)c67)[C@H](C)C5)CC4)ncc3F)cnc2n(C(C)C)c1=O (stereo partly shown) [Compound 210b]" target_desc="N-terminal HiBiT tagged BCL6 (Homo sapiens, UniProt P41182)" value_reported="10 to 100 nM"
compound="CNC(=O)COc1cc2cc(Nc3nc(N4CCC(O)(CN5CCC(c6cccc7c(C8CCC(=O)NC8=O)nn(C)c67)CC5)CC4)ncc3Cl)cnc2n(C(C)C)c1=O (stereo not shown) [Compound 203]" target_desc="N-terminal HiBiT tagged BCL6 (Homo sapiens, UniProt P41182)" value_reported="< 10 nM"

Bench note, N-terminal HiBiT tagged BCL6 (Homo sapiens, UniProt P41182): CNC(=O)COc1cc2cc(Nc3nc(N4CCC(CN5CCN(c6cccc7c(C8CCC(=O)NC8=O)nn(C)c67)C[C@H]5C)CC4)ncc3F)cnc2n(C(C)C)c1=O (stereo partly shown) [Compound 188a] , DC50 reads 10 to 100 nM

----------
DC50 values by entry
Target Desc: N-terminal HiBiT tagged BCL6 (Homo sapiens)
Construct: expressed in transfected cells; host or cells: HT1080 (ATCC CCL-121), stably transduced with lentivirus pLV-UBC-N-HiBiT-BCL6-PGK-puro
Test Protocol: HiBiT based degradation assay
Assay type: cell-based
Reported Conditions: HT1080 cells expressing N-terminal HiBiT tagged BCL6; 5 hours of incubation; four-parameter logistic model; read-out: EC50 (5 hr)

# count of solved cases: 5
compound="CNC(=O)COc1cc2cc(Nc3nc(N4CCC(CN5C6CC5CN(c5cccc7c(C8CCC(=O)NC8=O)nn(C)c57)C6)CC4)ncc3Cl)cnc2n(C(C)C)c1=O (stereo not drawn)" test_readout=DC50 value_reported="< 10 nM"
compound="CNC(=O)COc1cc2cc(Nc3nc(N4CC[C@H](CN5CCN(c6ccc7c(C8CCC(=O)NC8=O)nn(C)c7c6)CC5)[C@H](C)C4)ncc3Cl)cnc2n(C(C)C)c1=O (stereo partly drawn) [Compound 176a]" test_readout=DC50 value_reported="< 10 nM"
compound="CNC(=O)COc1cc2cc(Nc3nc(N4CCC(F)(CN5CCC(c6cccc7c(C8CCC(=O)NC8=O)nn(C)c67)CC5)CC4)ncc3Cl)cnc2n(C(C)C)c1=O (stereo not drawn)" test_readout=DC50 value_reported="10 to 100 nM"
compound="CNC(=O)COc1cc2cc(Nc3nc(N4CC5(CCC(Nc6ccc7c(C8CCC(=O)NC8=O)nn(C)c7c6)CC5)C4)ncc3Cl)cnc2n(C)c1=O (stereo not drawn)" test_readout=DC50 value_reported="< 10 nM"
compound="CNC(=O)COc1cc2cc(Nc3nc(N4CCC(CN5CCC(c6ccc7c(C8CCC(=O)NC8=O)nn(C)c7c6)CC5)CC4)ncc3Cl)cnc2n(C(C)C)c1=O (stereo not drawn)" test_readout=DC50 value_reported="< 10 nM"

// CNC(=O)COc1cc2cc(Nc3nc(N4CCC(C(=O)N5CCN(c6ccc7c(C8CCC(=O)NC8=O)nn(C)c7c6)CC5)CC4)ncc3Cl)cnc2n(C(C)C)c1=O (stereo not drawn) : DC50 value = < 10 nM

// CNC(=O)COc1cc2cc(Nc3nc(N4CCC(CN5[C@H](C)CN(c6cccc7c(C8CCC(=O)NC8=O)nn(C)c67)C[C@@H]5C)CC4)ncc3Cl)cnc2n(C(C)C)c1=O (stereo partly drawn) [Compound 197a] : DC50 value = 10 to 100 nM

// CNC(=O)COc1cc2cc(Nc3nc(N4CC5(CN(CC6CCN(c7cccc8c(C9CCC(=O)NC9=O)nn(C)c78)CC6)C5)C4)ncc3Cl)cnc2n(C)c1=O (stereo not drawn) : DC50 value = < 10 nM

----------
Target Desc: N-terminal HiBiT tagged BCL6 (Homo sapiens, UniProt P41182)
Construct: expressed in transfected cells; host or cells: HT1080 (ATCC CCL-121), stably transduced with lentivirus pLV-UBC-N-HiBiT-BCL6-PGK-puro
Test Protocol: HiBiT based degradation assay
Type: cell-based
Reported Conditions: HT1080 cells expressing N-terminal HiBiT tagged BCL6; 5 hours of incubation; BCL6 degradation normalized with DMSO control
Test Readout: Ymin (5 hr)

compound="CNC(=O)COc1cc2cc(Nc3nc(N4CCC(CN5CCN(c6cccc7c(C8CCC(=O)NC8=O)nn(C)c67)CC5(C)C)CC4)ncc3Cl)cnc2n(C(C)C)c1=O (centres unmarked)" value_reported="+++ (30% ≤ Ymin < 50%)"
compound="CNC(=O)COc1cc2cc(Nc3nc(N4CC5(CC[C@H](Nc6cccc7c(C8CCC(=O)NC8=O)nn(C)c67)[C@H](C)C5)C4)ncc3Cl)cnc2n(C)c1=O (relative stereo) [Compound 159a]" value_reported="+++ (30% ≤ Ymin < 50%)"
compound="CNC(=O)COc1cc2cc(Nc3nc(N4CC5(CC[C@@H](Nc6ccc7c(C8CCC(=O)NC8=O)nn(C)c7c6)[C@H](C)C5)C4)ncc3Cl)cnc2n(C)c1=O (relative stereo) [Compound 156d]" value_reported="++++ (Ymin < 30%)"
compound="CNC(=O)COc1cc2cc(Nc3nc(N4CC5(CCC(CN6CCN(c7ccc8c(C9CCC(=O)NC9=O)nn(C)c8c7)CC6)CC5)C4)ncc3Cl)cnc2n(C(C)C)c1=O (centres unmarked)" value_reported="++++ (Ymin < 30%)"

We next turn to a different compound, shown below.
// CNC(=O)COc1cc2cc(Nc3nc(N4CCC5(CCN(CC6CCN(c7cccc8c(C9CCC(=O)NC9=O)nn(C)c78)CC6)CC5)CC4)ncc3Cl)cnc2n(C)c1=O (centres unmarked) : Ymin (5 hr) value = ++++ (Ymin < 30%)

----------
Target Desc: N-terminal HiBiT tagged BCL6 (Homo sapiens)
Construct: expressed in transfected cells; host or cells: HT1080 (ATCC CCL-121), stably transduced with lentivirus pLV-UBC-N-HiBiT-BCL6-PGK-puro
Test Protocol: HiBiT based degradation assay
Type: cell-based
Reported Conditions: HT1080 cells expressing N-terminal HiBiT tagged BCL6; 5 hours of incubation; BCL6 degradation normalized with DMSO control
Method: Human BCL6 protein coding open reading frame fused with N-terminal HiBiT coding sequence was synthesized from Integrated DNA Technologies (IDT). […] HT1080 cells expressing N-terminal HiBiT tagged BCL6 were dispensed into a 384-well plate pre-spotted with compounds at varying concentrations. […] After incubation, luminescence was read on a PHERAstar FSX Plate Reader (BMG). […]
Test Readout: Ymin (5 hr)

compound="CNC(=O)COc1cc2cc(Nc3nc(N4CCN(CC5CCN(c6ccc7c(C8CCC(=O)NC8=O)nn(C)c7c6)CC5)[C@@H](CO)C4)ncc3Cl)cnc2n(C(C)C)c1=O (stereo partly drawn) [Compound 153a]" test_readout="Ymin (5 hr)" value_reported="+++ (30% ≤ Ymin < 50%)"
compound="CNC(=O)COc1cc2cc(Nc3nc(N4CCN(CC5CCC6(CC5)CN(c5cccc7c(C8CCC(=O)NC8=O)nn(C)c57)C6)CC4)ncc3Cl)cnc2n(C)c1=O (stereo not drawn)" test_readout="Ymin (5 hr)" value_reported="+++ (30% ≤ Ymin < 50%)"
